# Tested on: Cholesterol in serum
# method.notes: Serum cholesterol lowering activity in rats on high-fat feed, single oral dose
# Type: in vivo, Wister-Imamich strain male rats
# experimental.parameters: rat, 75 mg/kg oral, 6 hours after administration
outcome.measure: Cholesterol in serum (mg/dL)

>  <compound>
CC(/C=C/C1(C)C(C)CCC(=O)C1C)=C\Cc1c(O)c(C=O)c(C)c(Cl)c1OC(C)C (stereo not shown)

>  <outcome.measure>
Cholesterol in serum

>  <display.unit>
mg/dL

>  <test.result>
85.6

$$$$
>  <compound>
CC(/C=C/[C@@]1(C)[C@H](C)CCC(=O)[C@@H]1C)=C\Cc1c(O)c(Cl)c(C)c(C=O)c1O [ascochlorin, reference compound]

>  <outcome.measure>
Cholesterol in serum

>  <display.unit>
mg/dL

>  <test.result>
101.3

$$$$
>  <compound>
CCC(C)Oc1c(Cl)c(C)c(C=O)c(O)c1C/C=C(C)/C=C/C1(C)C(C)CCC(=O)C1C (stereo not shown)

>  <outcome.measure>
Cholesterol in serum

>  <display.unit>
mg/dL

>  <test.result>
89.1

$$$$
>  <compound>
CCOC(=O)C(C)(C)Oc1ccc(Cl)cc1 [ethyl-α-(p-chlorophenoxy) isobutylate, reference compound]

>  <outcome.measure>
Cholesterol in serum

>  <display.unit>
mg/dL

>  <test.result>
103.8

$$$$
>  <compound>
COc1c(Cl)c(C)c(C=O)c(O)c1C/C=C(C)/C=C/C1(C)C(C)CCC(=O)C1C (stereo not shown)

>  <outcome.measure>
Cholesterol in serum

>  <display.unit>
mg/dL

>  <test.result>
76.6

$$$$
>  <compound>
CCOc1c(Cl)c(C)c(C=O)c(O)c1C/C=C(C)/C=C/C1(C)C(C)CCC(=O)C1C (stereo not shown)

>  <outcome.measure>
Cholesterol in serum

>  <display.unit>
mg/dL

>  <test.result>
82.2

$$$$
>  <compound>
CC(/C=C/C1(C)C(C)CCC(=O)C1C)=C\Cc1c(O)c(C=O)c(C)c(Cl)c1OC(C)(C)C (stereo not shown)

>  <outcome.measure>
Cholesterol in serum

>  <display.unit>
mg/dL

>  <test.result>
82.7

$$$$
>  <compound>
CC(/C=C/C1(C)C(C)CCC(=O)C1C)=C\Cc1c(O)c(C=O)c(C)c(Cl)c1OCC(C)C (stereo not shown)

>  <outcome.measure>
Cholesterol in serum

>  <display.unit>
mg/dL

>  <test.result>
88.5

$$$$
>  <compound>
CCCCOc1c(Cl)c(C)c(C=O)c(O)c1C/C=C(C)/C=C/C1(C)C(C)CCC(=O)C1C (stereo not shown)

>  <outcome.measure>
Cholesterol in serum

>  <display.unit>
mg/dL

>  <test.result>
86.9

$$$$
>  <compound>
CCCOc1c(Cl)c(C)c(C=O)c(O)c1C/C=C(C)/C=C/C1(C)C(C)CCC(=O)C1C (stereo not shown)

>  <outcome.measure>
Cholesterol in serum

>  <display.unit>
mg/dL

>  <test.result>
84.3

$$$$

###

# method.notes: Acute toxicity, rabbit
# Set-up: species or system Japanese native male rabbits
# experimental.parameters: in vivo, male, oral
# Description: Acute toxicity of the ascochlorin derivatives was observed by the use of Wister-Imamichi strain male rats weighing 230 ± 30 g and ddY strain male and female mice (5 weeks old) weighing 20 ±3 g which were divided into groups of 10 members each. Japanese native male rabbits weighing 2 kg ± 300 g which were divided into groups of five members each were also used. […]
outcome.measure: LD50

>  <compound>
COc1c(Cl)c(C)c(C=O)c(O)c1C/C=C(C)/C=C/C1(C)C(C)CCC(=O)C1C (stereo not shown) [4-O-methylascochlorin]

>  <test.result>
> 2000 mg/kg

$$$$
